tested on: ATP; test: switch fluorescence ratio, 500 uM ATP over buffer (Cy3 cluster intensity, sum of 5 cycles each) (fold (ratio)); higher = stronger signal-on switching upon ATP binding; sequences stand for … in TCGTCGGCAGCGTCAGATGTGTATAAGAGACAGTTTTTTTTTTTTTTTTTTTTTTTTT…TC; settings: aptamer strand: ATP DNA aptamer (quencher-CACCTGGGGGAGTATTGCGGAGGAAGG + anchor), 100 nM annealed; ATP concentration: 500 uM;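 note: ATP exposure 15 min at 22 °C before imaging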

residues: TGGTTGAGAC
switch fluorescence ratio: 0.988
--
residues: TTGAATTTTA
switch fluorescence ratio: 0.999
--
residues: TATTTGGGTA
switch fluorescence ratio: 0.987
--
residues: ATAAGAGGGT
switch fluorescence ratio: 0.976
--
residues: GATTAAATGT
switch fluorescence ratio: 0.992
--
residues: TCTATTTGCA
switch fluorescence ratio: 1
--
residues: CTAACGGTTT
switch fluorescence ratio: 0.976
--
residues: TAAATCTAGA
switch fluorescence ratio: 1.02
--
residues: TAATATGGGG
switch fluorescence ratio: 1.01
--
residues: CTGTGGTTTA
switch fluorescence ratio: 1.03
--
residues: AAATTGGGTA
switch fluorescence ratio: 0.991
--
residues: AAATTGGCAT
switch fluorescence ratio: 0.993
--
residues: TATTCTAATT
switch fluorescence ratio: 1
--
residues: ATTTGTGAGG
switch fluorescence ratio: 0.978
--
residues: TTGGTATGAG
switch fluorescence ratio: 0.997
--
residues: CCGATAATAG
switch fluorescence ratio: 5.21
--
residues: TGGTCTTGTA
switch fluorescence ratio: 1.04
